Task for the reader: assign each of the following binders its reported pEC50.
Assayed target: T1, CD47 on CHOK1-CD47 cells (UniProt Q08722 19-323)
T1 construct: whole, on cells; The rabbits were immunized with human CD47, so human is likely
T1 sequence (Q08722 19-323 limits assumed): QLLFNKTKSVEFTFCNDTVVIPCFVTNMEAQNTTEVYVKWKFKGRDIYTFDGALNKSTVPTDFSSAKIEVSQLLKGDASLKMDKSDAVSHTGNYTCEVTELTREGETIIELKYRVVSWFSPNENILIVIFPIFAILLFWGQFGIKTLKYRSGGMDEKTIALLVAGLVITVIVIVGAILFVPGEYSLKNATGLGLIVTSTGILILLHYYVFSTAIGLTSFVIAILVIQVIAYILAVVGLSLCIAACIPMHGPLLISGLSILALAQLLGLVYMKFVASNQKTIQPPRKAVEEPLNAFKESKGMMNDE
Test name: flow cytometry on CHOK1-CD47 cells
A value of pEC50 is the negative decimal logarithm of a concentration given in moles per litre.

Reported pEC50 for 70H1-VH3VL2 (antibody, V domains shown, Humanized 70H1) VH: QQQLVESGGGVVQPGGSLRLSCAASGFSFSSGYDMCWVRQAPGKGLEWIACIYTRSSGGTYYASWAKGRFTISKDNSKNTLYLQMNSLRAEDTAVYFCAKGRSSYRLNLWGQGTLVTVSS VL: DIQMTQSPSTLSASVGDRVTIKCQASQSISNELSWYQQKPGKAPKLLIYRASTLESGVSSRFSGSGSGTEFTLTISSLQPDDFATYYCQSTFYGDYGNAFGGGTKVEIK : what is it? 9.19

Reported pEC50 for 70H1-VH3VL1 (antibody, V domains shown, Humanized 70H1, the final preferred antibody) VH: QQQLVESGGGVVQPGGSLRLSCAASGFSFSSGYDMCWVRQAPGKGLEWIACIYTRSSGGTYYASWAKGRFTISKDNSKNTLYLQMNSLRAEDTAVYFCAKGRSSYRLNLWGQGTLVTVSS VL: DIQMTQSPSTLSASVGDRVTITCQASQSISNELSWYQQKPGKAPKLLIYRASTLESGVPSRFSGSGSGTEFTLTISSLQPDDFATYYCQSTFYGDYGNAFGGGTKVEIK : what is it? 9.64

Reported pEC50 for 70H1-VH2VL1 (antibody, V domains shown, Humanized 70H1) VH: QQQLVESGGGVVQPGGSLRLSCAASGFTFSSGYDMCWVRQAPGKGLEWIACIYTRSSGGTYYASWAKGRFTISKDNSKNTLYLQMNSLRAEDTAVYYCAKGRSSYRLNLWGQGTLVTVSS VL: DIQMTQSPSTLSASVGDRVTITCQASQSISNELSWYQQKPGKAPKLLIYRASTLESGVPSRFSGSGSGTEFTLTISSLQPDDFATYYCQSTFYGDYGNAFGGGTKVEIK : what is it? 8.96
